tested on: SK-OV-3 ovarian; experiment: NCI-60 one-dose screen, 48 h; settings: 10 µM
Compounds without any hit were thinned out: in the full panel of roughly 83,000, 20% have a hit. The source made the active and inactive calls. Rule for the calls: active = growth percent below 10; inactive = the rest.
Outcomes: yes (1) (active), no (0) (inactive)

molecule: Nc1ccc(-c2cccs2)cc1NC(=O)c1ccc(CCCC(=O)Nc2ccc(C3CC3N)cc2)cc1 (stereo not given)
category label: no (0)

molecule: CC(=O)Nc1ccc(CC[C@H]2CCC/C=C/[C@@H]3C[C@H](O)C[C@H]3[C@H](O)/C=C/C(=O)O2)cc1
category label: no (0)

molecule: O=C(CCc1nnc2sc(-c3cc(O)c(O)c(O)c3)nn12)c1nc2ccccc2[nH]1
category label: no (0)

molecule: CCN(CC)CCN1c2nc3ccccc3cc2Sc2cc3ccccc3nc21
category label: no (0)

molecule: C#C[C@]1(O)CCC2C3CCc4cc(OC5CCCC5)ccc4C3CC[C@@]21C (stereo not given in full)
category label: no (0)

molecule: CS(=O)(=O)c1nccc(-c2c(-c3cccc(OCc4ccccc4)c3)nc3sccn23)n1
category label: no (0)

molecule: O=C(CCC(C(=O)c1ccccc1)c1ccccc1)c1ccccc1 (stereo not given)
category label: no (0)

molecule: N#Cc1cnn(C(=O)c2nn(-c3ccc(Cl)cc3)cc2O)c1N
category label: yes (1)

molecule: CNC(=O)c1c(I)c(NC(C)=O)c(I)c(C(=O)O)c1I
category label: no (0)

molecule: C=CCN(CC=C)C(=O)[C@H](CC)[C@@H]1CC[C@@H](C)[C@@H]([C@H](C)[C@@H](O)[C@@H](C)C(=O)[C@H](CC)C2O[C@]3(C=C[C@@H](O)[C@]4(CC[C@@](C)([C@H]5CC[C@](O)(CC)[C@H](C)O5)O4)O3)[C@H](C)C[C@@H]2C)O1 (stereo not given in full)
category label: yes (1)

molecule: CCN(CC)CCOc1cccc2c1C(=O)c1ccccc1C2=O
category label: no (0)

molecule: Cc1ccc(Cl)cc1NC(=O)CCl
category label: no (0)

molecule: COc1ccccc1-n1c(-c2csc(NC(C)=O)n2)n[nH]c1=S
category label: no (0)

molecule: COc1ccc2c(c1)C(=O)/C(=C/c1ccc([N+](=O)[O-])o1)O2
category label: no (0)

molecule: CCOC(=O)CC(S(=O)(=O)c1ccccc1)S(=O)(=O)c1ccccc1
category label: no (0)

molecule: O=C(Nc1cc([N+](=O)[O-])c2[nH]c(=O)c3ccccc3c2c1)C(F)(F)F
category label: no (0)

molecule: Cc1ccc(S(=O)(=O)N(C)CCCCCC(=O)O)cc1
category label: no (0)

molecule: O=C(CCl)Nc1ccc(Cc2ccc(NC(=O)CCl)cc2)cc1
category label: no (0)

molecule: CCOC(=O)CN(c1sc(C)c(C)c1C(=O)OCC)S(=O)(=O)c1ccc(C)cc1
category label: no (0)

molecule: Clc1ccc2c(c1)C(N1CCNCC1)=Nc1ccccc1O2
category label: no (0)
